Assign melting point to each entry below.
Where a name gives a salt, the structure may show the parent alone.

Input: # get_value(readout='melting point', item= "Cn1ncnc1COc1nn2c(-c3ccccc3F)nncc2c1-c1cccc(-c2cccnc2)c1" )
Output: 157 to 163 °C

Input: What about Cn1ncnc1COc1nn2c(-c3ccccc3F)nncc2c1-c1cccc(N)c1 (as salt: hemisulfate) ?
Output: 196 to 200 °C

Input: Next up: "Cn1ncnc1COc1nn2c(-c3ccccc3F)nncc2c1-c1ccccn1"
Output: 186 to 187 °C

====

assay-endpoint: melting point

Input: Entry "Cn1ncnc1COc1nn2c(-c3ccc(F)cc3F)nncc2c1-c1ccccc1F" has what melting point?
Output: 164 to 166 °C

Input: Here is the next compound: "Fc1ccccc1-c1c(OCc2nc3ccccn3n2)nn2c(-c3ccccc3F)nncc12"
Output: 208 to 209 °C

Input: Then this compound: "Cn1ncnc1COc1nn2c(-c3ccccc3F)nncc2c1-c1cccnc1"
Output: 181 to 183 °C

Input: Record: "Cn1ncnc1COc1nn2c(-c3ccccc3F)nncc2c1I"
Output: 218 to 219 °C

====

Field: melting point. Provide a value for each of the compounds that follow.

Input: I have this compound here, Cn1ncnc1COc1nn2c(C3CC3)nncc2c1-c1ccccc1F [Example 89] , and I need its recorded melting point.
Output: 97 to 99 °C

Input: CCC(C)(C)c1c(OCc2ncnn2C)nn2c(-c3ccccc3F)nncc12 [Example 34] ?
Output: 89 to 91 °C

Input: One more compound: Cn1ncnc1COc1nn2c(-c3ccccc3F)nncc2c1Br [Example 17]
Output: 215 to 219 °C

Input: What do you get for CCn1ncnc1COc1nn2c(-c3ccccc3F)nncc2c1-c1ccco1 [Example 91] ?
Output: 182 to 183 °C

====

Record form. Attribute: melting point. Fill in for each entry.
Respond numerically; units are °C and should not be typed.

Input: Which value of melting point has been reported for "Fc1ccccc1-c1c(OCc2cnc3ccccc3n2)nn2c(-c3ccccc3F)nncc12" in the records?
Output: 209

Input: Record: "Cn1ncnc1COc1nn2c(-c3cc(F)ccc3F)nncc2c1C(C)(C)C"
Output: 144

Input: Same thing, different molecule: "CC(C)n1ncnc1COc1nn2c(-c3ccccc3F)nncc2c1-c1ccccc1F"
Output: 179

Input: Then what about the molecule "Cn1ncnc1COc1nn2c(-c3cccc(F)c3)nncc2c1-c1ccccc1" ?
Output: 198

Input: One more molecule: "CCCn1ncnc1COc1nn2c(-c3ccc(F)cc3)nncc2c1C(C)(C)C"
Output: 154

Input: Same again, this time with "Cn1cnc(COc2nn3c(-c4ccccc4F)nncc3c2-c2ccccc2F)n1"
Output: 184

====

assay-endpoint: melting point

Input: Name the recorded melting point for Cn1ncnc1COc1nn2c(-c3ccccc3F)nncc2c1-c1ccco1 [Example 55] .
Output: 188 to 190 °C

Input: Next: Cn1ncnc1COc1nn2c(-c3ccccc3F)nncc2c1-c1cccs1 [Example 54]
Output: 196 to 197 °C

Input: Also check Fc1ccccc1-c1c(OCc2ncnn2CC(F)F)nn2c(-c3ccccc3F)nncc12 [Example 85]
Output: 179 to 180 °C

Input: And the next one, Cn1ncnc1COc1nn2c(-c3ccccc3F)nncc2c1-c1cccc(C#N)c1 [Example 97] ?
Output: 194 to 196 °C

Input: For Cn1ncnc1COc1nn2c(-c3ccccc3F)nncc2c1-c1cc(F)cc(F)c1 [Example 20] then?
Output: 171 to 173 °C

Input: Now consider CCC(C)(C)c1c(OCc2ncnn2C)nn2c(-c3c(F)ccc(F)c3F)nncc12 [Example 43] and answer again.
Output: 122 to 125 °C

Input: What do we get for Cn1ncnc1COc1nn2c(-c3ccco3)nncc2c1-c1ccccc1F [Example 36] ?
Output: 204 to 206 °C

Input: And Cn1ncnc1COc1nn2c(-c3ccccc3F)nncc2c1-c1cc(F)ccc1F [Example 14] ?
Output: 164 to 165 °C
